The entries below come with measured MIC values attached.
test system: Actinobacillus pleuropneumoniae serotype 7; experiment: Antibacterial MIC, agar-dilution or broth-dilution microtiter test; type: cell-based; conditions: Strain B: Actinobacillus pleuropneumoniae serotype 7
Numeric answer only, unit µg/mL assumed.

Solved cases below.
INSERT INTO measurements (compound, endpoint_name, measurement_unit, observed_measurement) VALUES
  ('CC[C@H]1OC(=O)C[C@@H](O)[C@H](C)[C@@H](O[C@@H]2O[C@H](C)[C@@H](O)[C@H](N(C)C)[C@H]2O)[C@@H](CCN2CCCCC2)C[C@@H](C)C(=O)/C=C/C(C)=C/[C@@H]1CN(CC)CC', 'MIC', 'µg/mL', 32),
  ('CC[C@H]1OC(=O)C[C@@H](O)[C@H](C)[C@@H](O[C@@H]2O[C@H](C)[C@@H](O)[C@H](N(C)C)[C@H]2O)[C@@H](CCN2CCCCC2)C[C@@H](C)C(=O)/C=C/C(C)=C/[C@@H]1CN1CCCCC1 [Zuprevo, reference compound]', 'MIC', 'µg/mL', 64);

Which value of MIC has been reported for CC[C@H]1OC(=O)C[C@@H](O)[C@H](C)[C@@H](O[C@@H]2O[C@H](C)[C@@H](O)[C@H](N(C)C)[C@H]2O)[C@@H](CCN2CCCCC2)C[C@@H](C)C(=O)/C=C/C(C)=C/[C@@H]1CN(C)Cc1ccccc1 in the records?
64

----------
MIC overview
tested on: Escherichia coli 25922 (QC strain); experiment: Antibacterial MIC, agar-dilution or broth-dilution microtiter test; type: cell-based; conditions: Strain F: Escherichia coli 25922 (QC strain)
Report the value in µg/mL with no unit label.

INSERT INTO results (compound, observed_measurement) VALUES
  ('CCCCNC[C@H]1/C=C(C)/C=C/C(=O)[C@H](C)C[C@H](CCN2CCCCC2)[C@H](O[C@@H]2O[C@H](C)[C@@H](O)[C@H](N(C)C)[C@H]2O)[C@@H](C)[C@H](O)CC(=O)O[C@@H]1CC [Compound 4c]', 16);

Let's switch to this compound now.
Given the entry CC[C@H]1OC(=O)C[C@@H](O)[C@H](C)[C@@H](O[C@@H]2O[C@H](C)[C@@H](O[C@H]3C[C@@](C)(O)[C@@H](O)[C@H](C)O3)[C@H](N(C)C)[C@H]2O)[C@@H](CC=O)C[C@@H](C)C(=O)/C=C/C(C)=C/[C@@H]1CO[C@@H]1O[C@H](C)[C@@H](O)[C@@H](OC)[C@H]1OC [Tylosin, reference compound] , what MIC was observed with Escherichia coli 25922 (QC strain)?
256

----------
Measured MIC by item
tested on: M. gallisepticum S6; assay: Mycoplasma susceptibility testing (MIC); type: cell-based; conditions: Mycoplasmoides gallisepticum

INSERT INTO measurements (molecule, endpoint_name, observed_measurement) VALUES
  ('CC[C@H]1OC(=O)C[C@@H](O)[C@H](C)[C@@H](O[C@@H]2O[C@H](C)[C@@H](O)[C@H](N(C)C)[C@H]2O)[C@@H](CCN2CCCCC2)C[C@@H](C)C(=O)/C=C/C(C)=C/[C@@H]1CN(Cc1ccccc1)C(C)C', 'MIC', '< 0.12 µg/mL'),
  ('CC[C@H]1OC(=O)C[C@@H](O)[C@H](C)[C@@H](O[C@@H]2O[C@H](C)[C@@H](O)[C@H](N(C)C)[C@H]2O)[C@@H](CCN2Cc3ccccc3C2)C[C@@H](C)C(=O)/C=C/C(C)=C/[C@@H]1CN1CCCCC1 [Compound 12b]', 'MIC', '< 0.12 µg/mL'),
  ('CC[C@H]1OC(=O)C[C@@H](O)[C@H](C)[C@@H](O[C@@H]2O[C@H](C)[C@@H](O)[C@H](N(C)C)[C@H]2O)[C@@H](CCN2Cc3ccccc3C2)C[C@@H](C)C(=O)/C=C/C(C)=C/[C@@H]1CN(CC)CC [Compound 12c]', 'MIC', '< 0.12 µg/mL');

Give M. gallisepticum S6 MIC for CC[C@H]1OC(=O)C[C@@H](O)[C@H](C)[C@@H](O[C@@H]2O[C@H](C)[C@@H](O)[C@H](N(C)C)[C@H]2O)[C@@H](CCN2CCCCC2)C[C@@H](C)C(=O)/C=C/C(C)=C/[C@@H]1CN(CC)Cc1ccccc1
< 0.12 µg/mL

GET /values?readout=MIC&system=M. gallisepticum S6&item= CCCN(CCC)C[C@H]1/C=C(C)/C=C/C(=O)[C@H](C)C[C@H](CCN2CCCCC2)[C@H](O[C@@H]2O[C@H](C)[C@@H](O)[C@H](N(C)C)[C@H]2O)[C@@H](C)[C@H](O)CC(=O)O[C@@H]1CC
0.49 µg/mL

State its MIC on M. gallisepticum S6: CCCCNC[C@H]1/C=C(C)/C=C/C(=O)[C@H](C)C[C@H](CCN2CCCCC2)[C@H](O[C@@H]2O[C@H](C)[C@@H](O)[C@H](N(C)C)[C@H]2O)[C@@H](C)[C@H](O)CC(=O)O[C@@H]1CC
15.6 µg/mL

# returns recorded MIC (system: M. gallisepticum S6) for CC[C@H]1OC(=O)C[C@@H](O)[C@H](C)[C@@H](O[C@@H]2O[C@H](C)[C@@H](O)[C@H](N(C)C)[C@H]2O)[C@@H](CCN2CC(C)CC(C)C2)C[C@@H](C)C(=O)/C=C/C(C)=C/[C@@H]1CN(Cc1ccccc1)C(C)C (some centres unmarked)
< 0.12 µg/mL

Item: CC[C@H]1OC(=O)C[C@@H](O)[C@H](C)[C@@H](O[C@@H]2O[C@H](C)[C@@H](O)[C@H](N(C)C)[C@H]2O)[C@@H](CCN2C[C@H](C)C[C@H](C)C2)C[C@@H](C)C(=O)/C=C/C(C)=C/[C@@H]1CO[C@@H]1O[C@H](C)[C@@H](O)[C@@H](OC)[C@H]1OC [Tilmicosin, reference compound] Test system: M. gallisepticum S6 Read-out: MIC Value: ?
< 0.12 µg/mL

----------
test system: Actinobacillus pleuropneumoniae serotype 7; assay: Antibacterial MIC, agar-dilution or broth-dilution microtiter test; format: cell-based; settings: Strain B: Actinobacillus pleuropneumoniae serotype 7
Below is a list of entries, each paired with its recorded MIC value.
Give your result in µg/mL as a bare value.

INSERT INTO assay_data (compound, observed_measurement) VALUES
  ('CC[C@H]1OC(=O)C[C@@H](O)[C@H](C)[C@@H](O[C@@H]2O[C@H](C)[C@@H](O[C@H]3C[C@@](C)(O)[C@@H](O)[C@H](C)O3)[C@H](N(C)C)[C@H]2O)[C@@H](CC=O)C[C@@H](C)C(=O)/C=C/C(C)=C/[C@@H]1CO[C@@H]1O[C@H](C)[C@@H](O)[C@@H](OC)[C@H]1OC [Tylosin, reference compound]', 8),
  ('CC[C@H]1OC(=O)C[C@@H](O)[C@H](C)[C@@H](O[C@@H]2O[C@H](C)[C@@H](O)[C@H](N(C)C)[C@H]2O)[C@@H](CCN2CCCCC2)C[C@@H](C)C(=O)/C=C/C(C)=C/[C@@H]1CNC1CCCCC1 [Compound 4h]', 64);

Lab note: next compound to report on.
# query: MIC of entry CC[C@H]1OC(=O)C[C@@H](O)[C@H](C)[C@@H](O[C@@H]2O[C@H](C)[C@@H](O)[C@H](N(C)C)[C@H]2O)[C@@H](CCN2CCCCC2)C[C@@H](C)C(=O)/C=C/C(C)=C/[C@@H]1CNCc1ccccc1 [Compound 4e]
256

----------
test system: Pasteurella 8229; assay: Antibacterial MIC, agar-dilution or broth-dilution microtiter test; format: cell-based; conditions: Strain D: Pasteurella 8229
Entries and their measured MIC follow.
Answer with a number only, understood to be in µg/mL.

INSERT INTO measurements (compound, measurement_unit, observed_measurement) VALUES
  ('CC[C@H]1OC(=O)C[C@@H](O)[C@H](C)[C@@H](O[C@@H]2O[C@H](C)[C@@H](O)[C@H](N(C)C)[C@H]2O)[C@@H](CCN2CCCCC2)C[C@@H](C)C(=O)/C=C/C(C)=C/[C@@H]1CN1CCCC1', 'µg/mL', 128),
  ('CC[C@H]1OC(=O)C[C@@H](O)[C@H](C)[C@@H](O[C@@H]2O[C@H](C)[C@@H](O)[C@H](N(C)C)[C@H]2O)[C@@H](CCN2CCCCC2)C[C@@H](C)C(=O)/C=C/C(C)=C/[C@@H]1CN(CC)CC', 'µg/mL', 0.5),
  ('CCCCNC[C@H]1/C=C(C)/C=C/C(=O)[C@H](C)C[C@H](CCN2CCCCC2)[C@H](O[C@@H]2O[C@H](C)[C@@H](O)[C@H](N(C)C)[C@H]2O)[C@@H](C)[C@H](O)CC(=O)O[C@@H]1CC', 'µg/mL', 4),
  ('CC[C@H]1OC(=O)C[C@@H](O)[C@H](C)[C@@H](O[C@@H]2O[C@H](C)[C@@H](O)[C@H](N(C)C)[C@H]2O)[C@@H](CCN2CCCCC2)C[C@@H](C)C(=O)/C=C/C(C)=C/[C@@H]1CNC1CCCCC1', 'µg/mL', 2);

So what MIC did CC[C@H]1OC(=O)C[C@@H](O)[C@H](C)[C@@H](O[C@@H]2O[C@H](C)[C@@H](O)[C@H](N(C)C)[C@H]2O)[C@@H](CCN2C[C@H](C)C[C@H](C)C2)C[C@@H](C)C(=O)/C=C/C(C)=C/[C@@H]1CO[C@@H]1O[C@H](C)[C@@H](O)[C@@H](OC)[C@H]1OC [Tilmicosin, reference compound] get with Pasteurella 8229?
0.5

Requested read-out MIC, target or system Pasteurella 8229, entry CC[C@H]1OC(=O)C[C@@H](O)[C@H](C)[C@@H](O[C@@H]2O[C@H](C)[C@@H](O)[C@H](N(C)C)[C@H]2O)[C@@H](CCN2CCCCC2)C[C@@H](C)C(=O)/C=C/C(C)=C/[C@@H]1CN(CCO)CCO
32

Can you look up MIC on Pasteurella 8229 for CCCN(CCC)C[C@H]1/C=C(C)/C=C/C(=O)[C@H](C)C[C@H](CCN2CCCCC2)[C@H](O[C@@H]2O[C@H](C)[C@@H](O)[C@H](N(C)C)[C@H]2O)[C@@H](C)[C@H](O)CC(=O)O[C@@H]1CC ?
0.25
